# Tested on: UO-31
# ASSAY_DETAILS: NCI tumour cell line growth inhibition, 48 h
Activity calls are given as the source filed them. Rule as the data show it: active = GI50 up to about 1.1 µM and inactive = higher.
Possible outcomes: active, inactive

MOLECULE: CN1CNc2nc(N)n(C)c(=O)c2C1
LABEL: inactive
//
MOLECULE: CC1=C(C)C(=O)OC(C(C)(O)C2(O)CC3OC34C3CC(O)C56OC5C=CC(=O)C6(C)C3CCC42C)C1 (centres undefined)
LABEL: active
//
MOLECULE: Cc1c2ccccc2c(/C=N/NC(=O)CSCC(=O)N/N=C/c2c3ccccc3c(C)c3ccccc23)c2ccccc12
LABEL: inactive
//
MOLECULE: C=CCn1cc(C(=O)NC(=O)NCCCCCOC(=O)CCCCCCCCCCC(=O)OCCCCCNC(=O)NC(=O)c2cn(CC=C)c(=O)n(C)c2=O)c(=O)n(C)c1=O
LABEL: inactive
//
MOLECULE: CN(C)c1ccc(/C=C2\N=C(NNc3ccccc3)NC2=O)cc1
LABEL: inactive
//
MOLECULE: CN1C(=O)C2C=C3CCCCC3=CC2N(C)C1=O (centres undefined)
LABEL: inactive
//
MOLECULE: CC(C)Oc1cc2c(cc1O)CC[C@@H]1[C@@H]2CC[C@]2(C)[C@@H](O)CC[C@@H]12
LABEL: inactive
//
MOLECULE: Cc1ccc2[nH]c3c(c2c1)C1CCC(C(C)(C)C)CC1C1C(=O)N(c2ccc4c(c2)OCO4)C(=O)C31 (centres undefined)
LABEL: inactive
//
MOLECULE: Cc1ccc(/N=C2\SC(=S)N(CCC[N+](C)(C)C)\C2=N/c2ccc(C)cc2)cc1
LABEL: inactive
//
MOLECULE: CN(C)CCSCCO
LABEL: inactive
//
MOLECULE: COc1cc(-c2ccc(/N=N/c3c(S(=O)(=O)O)cc4cc(S(=O)(=O)O)cc(N)c4c3O)c(OC)c2)ccc1/N=N/c1c(S(=O)(=O)O)cc2cc(S(=O)(=O)O)cc(N)c2c1O
LABEL: inactive
//
MOLECULE: CS(=O)(=O)OCCn1c(=O)n(CCOS(C)(=O)=O)c(=O)n(CCOS(C)(=O)=O)c1=O
LABEL: inactive
//
MOLECULE: N#Cc1nc(Sc2cnsn2)c(Sc2cnsn2)nc1C#N
LABEL: inactive
//
MOLECULE: COc1cc(-c2nnc3n2NC=C(C(=O)O)S3)cc(OC)c1OC
LABEL: inactive
//
MOLECULE: O=C1NC(c2ccccc2)(c2ccccc2)C(=O)N1CCCCCCN1C(=O)NC(c2ccccc2)(c2ccccc2)C1=O
LABEL: inactive
//
MOLECULE: S=C1c2ccccc2N=C(NC2CCCC2)C2CSCN12 (centres undefined)
LABEL: inactive
//
MOLECULE: CCN1CCCn2c(=O)[nH]c3cc(Br)cc1c32
LABEL: inactive
//
MOLECULE: COc1cc(Cn2c3c(c4c(C(=O)NCCN(C)C)c(O)ccc42)C(=O)c2ccccc2C3=O)cc(OC)c1
LABEL: inactive
//
MOLECULE: Cc1ccc(Oc2ccc([N+](=O)[O-])cc2[N+](=O)[O-])c(C)c1
LABEL: inactive
